Measured pIC50 by item
System: Meloidogyne incognita
Experiment: Nematocidal activity against Meloidogyne incognita
Assay type: functional
Assay Setup: Meloidogyne incognita
pIC50: −log10 of the molar value.

Record Smiles: C=CCc1ccc(OC)c(OC)c1
Test System: Meloidogyne incognita
pIC50: 3.30
//
Record Smiles: C=CCc1ccc(O)c(OC)c1
Test System: Meloidogyne incognita
pIC50: 3.40
//
Record Smiles: C=CCc1ccc(OC)cc1
Test System: Meloidogyne incognita
pIC50: 2.90
